System: human lung carcinoma cell line A549
Experiment: In vitro cytotoxicity, clone forming assay in A549 cells
Assay type: cell-based
Details: A549, 24 h exposure, 12 days cultivation; with addition of 4.0 U/mL β-D-galactosidase
pIC50: −log10 of the molar value.
Use criterion met when the recorded pIC50 is no lower than 9; use criterion not met when it is lower.

Molecule: COc1cc2[nH]c(C(=O)N3C[C@@H]([C@@H](C)Cl)c4c3cc(O[C@@H]3O[C@H](CO)[C@H](O)[C@H](O)[C@H]3O)c3ccccc43)cc2cc1OCCN(C)C [(+)-8c]
Group: criterion met
--
Molecule: CC(Cl)C1CN(C(=O)c2cc3cc(OCCN4CCOCC4)ccc3[nH]2)c2cc(O[C@@H]3O[C@H](CO)[C@H](O)[C@H](O)[C@H]3O)c3ccccc3c21 (single isomer, unassigned; (+)) [(+)-8b]
Group: criterion not met
--
Molecule: C[C@@H](Cl)[C@@H]1CN(C(=O)c2cc3cc(NC(=O)CN(C)C)ccc3[nH]2)c2cc(O[C@@H]3O[C@H](CO)[C@H](O)[C@H](O)[C@H]3O)c3ccccc3c21 [(+)-8e]
Group: criterion not met
